- Tested target: human secretin receptor (hSCTR) (human, UniProt P47872 23-440)
- Sequence (P47872 23-440): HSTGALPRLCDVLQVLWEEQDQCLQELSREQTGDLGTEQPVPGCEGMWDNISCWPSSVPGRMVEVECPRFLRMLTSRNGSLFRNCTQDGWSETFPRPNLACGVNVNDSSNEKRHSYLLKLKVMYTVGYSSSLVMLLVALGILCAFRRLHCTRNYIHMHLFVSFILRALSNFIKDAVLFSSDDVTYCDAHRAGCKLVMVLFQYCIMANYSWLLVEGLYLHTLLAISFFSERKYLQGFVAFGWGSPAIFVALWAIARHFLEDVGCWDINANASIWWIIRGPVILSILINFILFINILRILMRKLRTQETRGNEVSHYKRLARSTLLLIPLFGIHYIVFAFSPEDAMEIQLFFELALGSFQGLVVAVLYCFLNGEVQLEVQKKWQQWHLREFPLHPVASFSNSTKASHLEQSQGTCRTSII
- Test name: cell-based or functional assay
Numbered stars: 1 amine (or outer) side, 2 acyl side, 3 side chain; on linkers, the order of the positions; unused ones are H or OH. Square brackets hold non-standard residues; d marks the D form. Side chains are listed from the residue outwards. Ends that are not written are not given here. * marks the point of attachment. C20 diacid = O=C(O)CCCCCCCCCCCCCCCCCCC(=O)*; C18 diacid = O=C(O)CCCCCCCCCCCCCCCCC(=O)*; γGlu = O=C(O)[C@H](CCC(=O)[*:2])N[*:1]; AEEA = NCCOCCOCC(=O)O; Aib = CC(C)(N)C(=O)O
The entries below come with measured pEC50 hSCTR values attached.

Example entries and their recorded answers appear below.
Binder | pEC50 hSCTR
H[Aib]EGTFTSDVSRLK([AEEA-AEEA-γGlu-C20 diacid])EEA[Aib]AQRFLEHLVEAA-NH2 [SEQ ID NO: 215] | 6.3 -log M
H[Aib]EGTFTSDVSRLK([AEEA-AEEA-γGlu-C20 diacid])EEA[Aib]LQRFLEHLVEAA-NH2 [SEQ ID NO: 208] | 7.6 -log M
H[Aib]EGTFTSDVSRLK([AEEA-AEEA-γGlu-C18 diacid])EGAAEQRFLQHLVAAE-NH2 [SEQ ID NO: 206] | 5.3 -log M
H[Aib]EGTFTSDVSELLEEA[Aib]LQRFLEK([AEEA-AEEA-γGlu-C20 diacid])LVEAA-NH2 [SEQ ID NO: 214] | 6.1 -log M
H[Aib]EGTFTSDVSRLLEEA[Aib]LQRFLEK([AEEA-AEEA-γGlu-C20 diacid])LVEAA-NH2 [SEQ ID NO: 212] | 7.2 -log M
H[Aib]EGTFTSDVSTLK([AEEA-AEEA-γGlu-C20 diacid])EEA[Aib]LQRFLEHLVEAA-NH2 [SEQ ID NO: 211] | 7.1 -log M

# input for lookup
// query Fill blank: measured pEC50 hSCTR of the binder H[Aib]EGTFTSDVSELK([AEEA-AEEA-γGlu-C20 diacid])EEA[Aib]LQRFLEHLVEAA-NH2 [SEQ ID NO: 210] is ____.
// result 6.8 -log M
